Biological target: IRAK4 (Homo sapiens, UniProt Q9NWZ3)
Sequence (Q9NWZ3 whole entry): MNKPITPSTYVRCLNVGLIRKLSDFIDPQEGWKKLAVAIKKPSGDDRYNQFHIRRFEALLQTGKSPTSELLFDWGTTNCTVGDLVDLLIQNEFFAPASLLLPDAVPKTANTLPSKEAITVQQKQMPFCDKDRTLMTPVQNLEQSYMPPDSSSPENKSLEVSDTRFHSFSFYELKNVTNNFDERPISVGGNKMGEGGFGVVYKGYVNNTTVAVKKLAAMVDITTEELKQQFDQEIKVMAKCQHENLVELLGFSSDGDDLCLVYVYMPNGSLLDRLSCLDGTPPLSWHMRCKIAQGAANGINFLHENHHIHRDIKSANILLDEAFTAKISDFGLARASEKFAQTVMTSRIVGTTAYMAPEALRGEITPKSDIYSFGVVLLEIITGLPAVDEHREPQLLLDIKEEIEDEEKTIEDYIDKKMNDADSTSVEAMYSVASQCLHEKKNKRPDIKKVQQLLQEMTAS
Experiment: biochemical
Conditions: IRAK4 Biochemical Assay (1 mM ATP, 2 h) IC50 (μM), 1 mM ATP, 2 h, 100 pM IRAK4
Counter-ions that a name gives are not always drawn.
result.type: IC50 (µM)

1. CC(C)Oc1cc2nc(C34COC(C)(C3)C4)cn2cc1C(=O)Nc1cccc(N(C)C)n1 [Example 260, 2,2,2-trifluoroacetate]
2. CC(C)Oc1cc2nc(C34COC(C)(C3)C4)cn2cc1C(=O)Nc1cnc2cccnn12 [Example 321, 2,2,2-trifluoroacetate]
3. CC(C)Oc1cc2nc(C34COC(C)(C3)C4)c(F)n2cc1C(=O)Nc1cccc(C(F)F)n1 [Example 324, trifluoroacetate]
Q) // sort listed items: IC50 descending Field: ranking. Enter the labels in the order requested.
A) 3, 1, 2
(3: 0.002 µM, 1: 0.0005 µM, 2: 0.0003 µM)
